The entries below are paired with their reported growth.
Test system: SW-620 colon
Assay: NCI-60 one-dose screen, 48 h (100 = growth as untreated, 0 = no growth, -100 = all killed)
Conditions: 10 µM unless noted
Method: Growth inhibition of the SW-620 human tumor cell line is measured as a screen for anti-cancer activity. Cells are grown in 96 well plates and exposed to the test compound for 48 hours. Compounds are tested at a single concentration, which is 10^-5 M for most compounds. The reported endpoint is percent growth (GI% or GIPRCNT), where numbers from 0 - 100% represent growth inhibition, and numbers from -100% - 0 represent cell death. For example, a value of 40 represents 60% growth inhibition. […]
This is part of a sample that, as a whole, favours compounds with a hit. Of some 83,000 tested, about 20% had one in any assay.
State just the number; it will be interpreted in %.

compound	growth, %
Cc1cc(=O)oc2cc(Oc3nc(-c4ccc(Cl)cc4)cn4c(-c5ccc(Cl)cc5)cnc34)ccc12	66.7
NC(CC(=O)O)C(=O)OCc1ccccc1 (stereo not given)	107
O=C(O)c1cn(C2CC2)c2cc(N3CCN(Cc4nc5c(cnn5-c5ccc([N+](=O)[O-])cc5)c(=O)[nH]4)CC3)c(F)cc2c1=O	105

Summary: CC1=C(NCCN2CCCC2)C(=O)c2c(OCc3ccc(F)c(Cl)c3)cccc2C1=O , SW-620 colon, growth = 78.8

Summary: c1c2c(cc3c1OCO3)Cc1cc3c(cc1Cc1cc4c(cc1C2)OCO4)OCO3 , SW-620 colon, growth = 109

###

Tested on: RPMI-8226 leukemia
Assay: NCI-60 one-dose screen, 48 h
Conditions: 10 µM unless noted
Method: Growth inhibition of the RPMI-8226 human tumor cell line is measured as a screen for anti-cancer activity. Cells are grown in 96 well plates and exposed to the test compound for 48 hours. Compounds are tested at a single concentration, which is 10^-5 M for most compounds. The reported endpoint is percent growth (GI% or GIPRCNT), where numbers from 0 - 100% represent growth inhibition, and numbers from -100% - 0 represent cell death. For example, a value of 40 represents 60% growth inhibition. […]
This is part of a sample that, as a whole, favours compounds with a hit. Of some 83,000 tested, about 20% had one in any assay. Active and inactive are the calls of the source. Rule for the calls: active = growth percent below 10; inactive = the rest.
// classify into active, inactive

C#Cc1nc2ccccc2c(=O)[nH]1 active
O=C1/C(=C/c2ccc(Cl)cc2Cl)CN(S(=O)(=O)c2ccccc2)C/C1=C\c1ccc(Cl)cc1Cl active
COc1ccc(C(=O)/C=C/c2cc3ccccc3[nH]c2=O)cc1 inactive
CCNS(=O)(=O)c1ncnc2nc[nH]c12 inactive
Clc1nc(Cl)c2c3c(sc2n1)CCCC3 active
COc1ccc(CN2C(=O)/C(=C\c3cc(OC)c(OC)c(OC)c3)c3cc(OC)ccc32)cc1 active

[ask] Outcome logged for Cc1cc(Nc2nc(-c3cccnc3)nc3ccccc23)n[nH]1 in this assay:
[reply] inactive

[ask] Outcome logged for COc1ccc(C(=O)c2sc3nc(-c4ccccc4OC)ccc3c2N)cc1OC in this assay:
[reply] inactive

[ask] Outcome logged for C=C1C(=O)O[C@H]2[C@H]1CC/C(Cn1cc(Cc3c[nH]c4ccccc34)nn1)=C\CC[C@@]1(C)O[C@@H]21 in this assay:
[reply] active

[ask] Outcome logged for O=C(CCCN1CCOCC1)Nc1ccc(Cn2nnc3c2C(=O)c2nnn(Cc4ccc(NC(=O)CCCN5CCOCC5)cc4)c2C3=O)cc1 in this assay:
[reply] inactive

###

System: HOP-62 NSCLC
Assay: NCI-60 one-dose screen, 48 h (100 = growth as untreated, 0 = no growth, -100 = all killed)
Conditions: 10 µM unless noted
This is part of a sample that, as a whole, favours compounds with a hit. Of some 83,000 tested, about 20% had one in any assay.
The entries below are paired with their reported growth.
State just the number; it will be interpreted in %.

Past entries and their recorded results:
compound	growth / %
C/C(=C(/c1ccc(O)cc1)c1ccc(OCCN(C)C)cc1)c1ccccc1	79.8
C#Cc1nc(Nc2cc(C)[nH]n2)c2ccccc2n1	-61.2
COc1ccc(-c2c3c(nc4n[nH]c(-c5ccc(Cl)cc5)c24)-c2ccccc2C(=O)C3=O)cc1	29.1

Field growth (entry COc1ccc(Cl)cc1Nc1nc(C(F)(F)F)ccc1C(=O)N/N=C/c1cccnc1 ) reads 54

Field growth (entry COc1cc(C2CC(=O)Nc3c2c(C)nn3-c2nc3ccccc3[nH]2)cc(OC)c1OC (stereo unspecified) ) reads 104

Field growth (entry Cc1ccc2cnc(N)c(C#Cc3cncc(C(=O)Nc4ccc(CN5CCN(C)CC5)c(C(F)(F)F)c4)c3)c2c1 ) reads -85.2

Field growth (entry CCCCCCCCOC(=O)CC[C@@H](C)[C@H]1CC[C@H]2[C@@H]3[C@H](OC(=O)CCN)C[C@@H]4C[C@H](OC(=O)CCN)CC[C@]4(C)[C@H]3C[C@H](OC(=O)CCN)[C@]12C ) reads 37.7

Field growth (entry COc1ccc2c(c1)C(=O)/C(=C/c1cccc(OCC(=O)Nc3nc4c(s3)CCCC4)c1)O2 ) reads 99.3

###

Test system: NCI-H322M lung
Assay: NCI-60 one-dose screen, 48 h (100 = growth as untreated, 0 = no growth, -100 = all killed)
Details: 10 µM unless noted
This is part of a sample that, as a whole, favours compounds with a hit. Of some 83,000 tested, about 20% had one in any assay.
measure: growth (%)
State just the number; it will be interpreted in %.

Past entries and their recorded results:
COc1ccc(-c2nc(Nc3cc(C)[nH]n3)c3ccccc3n2)cc1 78.1
COc1ccc2nc3cc(Cl)ccc3c(N3CCN(c4nccc(Nc5ccc(Cl)cc5)n4)CC3)c2c1 97.5
COc1ccc(C(=O)c2sc3nc4c(cc3c2N)CCCC4)cc1OC 86.8
CC(=O)/C(=C/c1cccc(Cl)c1)C(=O)c1ccccc1 100

Proceeding to the next molecule to report its growth.
Field growth (entry Cc1ccc(S(=O)(=O)n2cc(-c3csc(-c4cn(C)c5ncccc45)n3)c3ccccc32)cc1 ) reads 79.5

###

System: HT29 colon
Test: NCI-60 one-dose screen, 48 h
Details: 10 µM unless noted
Compounds without any hit were thinned out: in the full panel of roughly 83,000, 20% have a hit. Calls of active or inactive are those of the source. The calls were made as follows: active = growth percent below 10; inactive = the rest.
// classify into active, inactive

[ask] Outcome logged for COc1ccc(S(=O)(=O)NCCCNc2nccc(-c3c(-c4cccc(N)c4)nc4sccn34)n2)cc1 in this assay:
[reply] inactive

###

System: NCI-H226 lung
Assay: NCI-60 one-dose screen, 48 h
Settings: 10 µM unless noted
The panel holds about 83,000 compounds, 20% with a hit somewhere; the sample as a whole holds those more often. The source made the active and inactive calls. Rule for the calls: active = growth percent below 10; inactive = the rest.
// classify into Yes (active), No (inactive)

Example cases with answers are listed next.
compound	target or test system	assigned label
Cc1sc2nc3[nH]/c(=C\c4ccc(Cl)cc4)c(=O)n3c(=O)c2c1C	NCI-H226 lung	No
Cc1ccc2c(c1)n([O-])c1cc(Cl)ccc1[n+]2=O	NCI-H226 lung	No
O=C(CNC1C2CC3CC(C2)CC1C3)Sc1nnc2sc3ccccc3n12 (stereo not given)	NCI-H226 lung	No
COc1ccc(-c2cc(NC(=O)Nc3ccc(O)cc3)no2)cc1	NCI-H226 lung	No
CN1CCN(c2ccc3nc(-c4ccc5nc(-c6ccc(OCCC(C)(C)C)cc6)[nH]c5c4)[nH]c3c2)CC1	NCI-H226 lung	No
COc1ccc(-c2nn(-c3ccccc3)cc2/C=C2\SC(=O)NC2=O)cc1	NCI-H226 lung	No
CC(=O)C1=C(O)C=C2Oc3c(C(=O)/C=C/c4c(Cl)cccc4Cl)c(O)c(C)c(O)c3[C@]2(C)C1=O	NCI-H226 lung	Yes
COc1cc(-c2c3c(nc4c2c(C)nn4-c2ccccc2)-c2ccccc2C(=O)C3=O)cc(OC)c1OC	NCI-H226 lung	No
COc1ccccc1N1CCN(CCn2c(=O)c3c(c4ccccc4n3C)n(C)c2=O)CC1	NCI-H226 lung	No

[ask] Outcome logged for CCOC(=O)C(C#N)C1CCCCC1 (stereo not given) in this assay:
[reply] No

###

System: U251 CNS
Experiment: NCI-60 one-dose screen, 48 h (100 = growth as untreated, 0 = no growth, -100 = all killed)
Settings: 10 µM unless noted
This is part of a sample that, as a whole, favours compounds with a hit. Of some 83,000 tested, about 20% had one in any assay.
Flag rule - growth less than 90% flags Fulfilled; the remaining entries get Not fulfilled.

compound	target or test system	assigned label
C/C=C/C(N)=O	U251 CNS	Not fulfilled
COc1ccc(-c2cc(=O)[nH]c3c(OC)c4ccccc4c(OC)c23)cc1	U251 CNS	Fulfilled
C(=N\Nc1ccccn1)/c1ccccn1	U251 CNS	Fulfilled
CCCCCn1cnc2c(=S)nc[nH]c21	U251 CNS	Not fulfilled

// next entry
[ask] Lab log: compare recorded growth with 90%; is it strictly lower for CN1CCN(Cc2ccc(NC(=O)c3cncc(C#Cc4cncc5nccnc45)c3)cc2C(F)(F)F)CC1 ?
[reply] Fulfilled
